Hi there, I'd appreciate the recorded koff for every entry that follows.
targetOrTestSystem: T1, cohesin-human CD40 ectodomain protein (P3398) (human)
T1 construct: SPR analyte; also called soluble human CD40 ectodomain; liquid phase soluble human CD40 ectodomain; not shown: cohesin domain of P3398 and its junction to CD40
T1 sequence (chain, as listed by the source limits assumed): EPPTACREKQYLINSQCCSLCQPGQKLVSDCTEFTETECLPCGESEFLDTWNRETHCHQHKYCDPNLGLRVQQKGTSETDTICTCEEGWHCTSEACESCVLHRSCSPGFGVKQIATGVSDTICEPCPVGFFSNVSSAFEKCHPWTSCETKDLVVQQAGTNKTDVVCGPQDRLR
assayExplanation: SPR (SensiQ Pioneer), hIgG4 mAb captured on Protein A/G, cohesin-human CD40 ectodomain in solution
Put down the number, then write its unit next to it.

INPUT: If you can, please state the reported koff value of anti-CD40 24A3 human IgG4 antibody (antibody, V domains shown, also called mAb4 [24A3]) VH: DVQLQESGPDLVKPSQSLSLTCTVTGYSITSDYSWHWIRQFPGNKLEWMGYIYYSGSTNYNPSLKSRISITRDTSKNQFFLQLNSVTTEDSATYFCARFYYGYSFFDYWGQGTTLTVSS VL: QIVLTQSPAFMSASPGEKVTMTCSASSSVSYMHWYQQKSGTSPKRWIYDTSKLASGVPARFSGSGSGTSYSLTISSMEAEDAATYYCQQWSSNPLTFGAGTK .
OUTPUT: 0.008 s⁻¹

INPUT: And the next one, anti-CD40 12B4 human IgG4 antibody (antibody, V domains shown, also called mAb3 [12B4]) VH: EVQLQQSGPELVKPGASVKMSCKASGYTFTDYVLHWVKQKPGQGLEWIGYINPYNDGTKYNEKFKGKATLTSDKSSSTAYMELSSLTSEDSAVYYCARGYPAYSGYAMDYWGQGTSVTVSS VL: DIQMTQTTSSLSASLGDRVTISCRASQDISNYLNWYQQKPDGTVKLLIYYTSRLHSGVPSRFSGSGSGTDYSLTISNLEQEDIATYFCHHGNTLPWTFGGGTK ?
OUTPUT: 0.027 s⁻¹

INPUT: And the next one, anti-CD40 12E12 human IgG4 antibody (antibody, V domains shown, also called mAb6 [12E12]; anti-CD40 12E12 IgG4) VH: EVQLVESGGGLVQPGGSLKLSCATSGFTFSDYYMYWVRQAPGKGLEWVAYINSGGGSTYYPDTVKGRFTISRDNAKNTLYLQMNSLRAEDTAVYYCARRGLPFHAMDYWGQGTLVTVSS VL: DIQMTQSPSSLSASVGDRVTITCSASQGISNYLNWYQQKPGKAVKLLIYYTSILHSGVPSRFSGSGSGTDYTLTISSLQPEDFATYYCQQFNKLPPTFGGGTK ?
OUTPUT: 0.0046 s⁻¹

INPUT: And the next one, anti-CD40 11B6 human IgG4 antibody (antibody, V domains shown, also called mAb1 [11B6 VH/VkV2]; PAB3405) VH: EVQLVQSGAEVKKPGASVKISCKASGYSFTGYYMHWVKQAHGQGLEWIGRINPYNGATSYNQNFKDRATLTVDKSTSTAYMELSSLRSEDTAVYYCAREDYVYWGQGTTVTVSS VL: DVVMTQSPLSLPVTLGQPASISCRSSQSLVHSNGNTYLHWYQQRPGQSPRLLIYKVSNRFSGVPDRFSGSGSGTDFTLKISRVEAEDVGVYFCSQSTHVPWTFGGGTKLEIKR ?
OUTPUT: 0.064 s⁻¹
